I'd be grateful if you could share measured Ki for these entries.
target.system: Cannabinoid receptor 1 (Rattus norvegicus, UniProt P20272)
Sequence (P20272 whole entry): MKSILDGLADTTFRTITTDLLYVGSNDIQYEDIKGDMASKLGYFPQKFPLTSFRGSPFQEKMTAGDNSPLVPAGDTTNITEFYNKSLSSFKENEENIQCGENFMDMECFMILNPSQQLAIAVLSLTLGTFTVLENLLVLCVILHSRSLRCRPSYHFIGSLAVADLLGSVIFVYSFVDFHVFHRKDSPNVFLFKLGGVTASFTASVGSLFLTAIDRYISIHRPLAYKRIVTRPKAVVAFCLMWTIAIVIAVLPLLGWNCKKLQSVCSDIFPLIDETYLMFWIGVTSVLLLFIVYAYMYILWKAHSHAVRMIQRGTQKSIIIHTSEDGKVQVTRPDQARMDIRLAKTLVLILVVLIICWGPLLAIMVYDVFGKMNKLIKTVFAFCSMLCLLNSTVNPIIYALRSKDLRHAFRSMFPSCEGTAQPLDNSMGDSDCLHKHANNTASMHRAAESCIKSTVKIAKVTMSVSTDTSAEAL
experimental.protocol: The compound was tested for Ki value against rat whole brain P2 membrane preparation in presence of enzyme inhibitor PMSF.
Give bare numbers, in nM.

Some solved entries appear below for comparison.
>  <line.notation>
CCCCC/C=C\C/C=C\C/C=C\C/C=C\CCCNC(=O)NCCF

>  <Ki (nM)>
55

$$$$
>  <line.notation>
CCCCC/C=C\C/C=C\C/C=C\C/C=C\CCCNC(=O)NCCC

>  <Ki (nM)>
91

$$$$

Proceed to the following item.
compound "CCCCC/C=C\C/C=C\C/C=C\C/C=C\CCCCOCCF" , Ki observed: 885
